System: Escherichia coli ATCC 25922
Experiment: Antimicrobial activity (MIC, MBC) against E. coli
Type: cell-based
Conditions: E. coli ATCC 25922; '-' = No activity
Listed compounds paired with reported MBC/MIC
EXPERIMENTAL_READOUT: MBC/MIC

INSERT INTO measurements (compound, test_target, measured_result) VALUES
  ('COc1ccc(C2CN(C)C3(c4ccccc4-c4nc5ccccc5nc43)C23CC(=O)N(C)C3=O)cc1 (stereo not drawn)', 'Escherichia coli ATCC 25922', 4),
  ('COc1ccc(C2CN(C)C3(c4ccccc4-c4nc5ccccc5nc43)C23CC(=O)N(C)C3=O)cc1Br (stereo not drawn)', 'Escherichia coli ATCC 25922', 2),
  ('CN(C)[C@@H]1C(O)=C(C(N)=O)C(=O)[C@@]2(O)C(O)=C3C(=O)c4c(O)cccc4[C@@](C)(O)[C@H]3C[C@@H]12 [Tetracycline, reference compound]', 'Escherichia coli ATCC 25922', 1),
  ('Cc1ccc(C2CN(C)C3(c4ccccc4-c4nc5ccccc5nc43)C23CC(=O)N(C)C3=O)cc1 (stereo not drawn)', 'Escherichia coli ATCC 25922', 2),
  ('CN1C(=O)CC2(C1=O)C(c1cccc(Cl)c1)CN(C)C21c2ccccc2-c2nc3ccccc3nc21 (stereo not drawn)', 'Escherichia coli ATCC 25922', 2),
  ('CN1C(=O)CC2(C1=O)C(c1ccc(F)cc1)CN(C)C21c2ccccc2-c2nc3ccccc3nc21 (stereo not drawn)', 'Escherichia coli ATCC 25922', 2),
  ('CN1C(=O)CC2(C1=O)C(c1cc(Br)c(O)c(Br)c1)CN(C)C21c2ccccc2-c2nc3ccccc3nc21 (stereo not drawn)', 'Escherichia coli ATCC 25922', 1),
  ('CN1C(=O)CC2(C1=O)C(c1ccc(Cl)cc1)CN(C)C21c2ccccc2-c2nc3ccccc3nc21 (stereo not drawn)', 'Escherichia coli ATCC 25922', 2),
  ('CN1C(=O)CC2(C1=O)C(c1ccc(Br)cc1)CN(C)C21c2ccccc2-c2nc3ccccc3nc21 (stereo not drawn)', 'Escherichia coli ATCC 25922', 2);

====

Assay: Ferric reducing power assay (FRAP)
Threshold 6 µM: IC50 strictly smaller gives Yes, otherwise No.

INSERT INTO results (compound, group) VALUES
  ('Cc1ccc(C2CN(C)C3(c4ccccc4-c4nc5ccccc5nc43)C23CC(=O)N(C)C3=O)cc1 (stereo not drawn)', 'No'),
  ('CN1C(=O)CC2(C1=O)C(c1ccc(O)c(Br)c1)CN(C)C21c2ccccc2-c2nc3ccccc3nc21 (stereo not drawn)', 'Yes'),
  ('CN1C(=O)CC2(C1=O)C(c1ccc(F)cc1)CN(C)C21c2ccccc2-c2nc3ccccc3nc21 (stereo not drawn)', 'No'),
  ('CN1C(=O)CC2(C1=O)C(c1ccc(Br)cc1)CN(C)C21c2ccccc2-c2nc3ccccc3nc21 (stereo not drawn)', 'No'),
  ('COc1ccc(C2CN(C)C3(c4ccccc4-c4nc5ccccc5nc43)C23CC(=O)N(C)C3=O)cc1 (stereo not drawn)', 'No');

====

Listed compounds paired with reported melting point
EXPERIMENTAL_READOUT: melting point

INSERT INTO assay_data (compound, experimental_readout, measured_result) VALUES
  ('Cc1ccc(C2CN(C)C3(c4ccccc4-c4nc5ccccc5nc43)C23CC(=O)N(C)C3=O)cc1 (stereo not shown) [5b]', 'melting point', '183 to 185 °C'),
  ('CN1C(=O)CC2(C1=O)C(c1cccc(Cl)c1)CN(C)C21c2ccccc2-c2nc3ccccc3nc21 (stereo not shown) [5i]', 'melting point', '193 to 195 °C'),
  ('CN1C(=O)CC2(C1=O)C(c1ccc(O)c(Br)c1)CN(C)C21c2ccccc2-c2nc3ccccc3nc21 (stereo not shown) [5l]', 'melting point', '189 to 191 °C'),
  ('COc1ccc(C2CN(C)C3(c4ccccc4-c4nc5ccccc5nc43)C23CC(=O)N(C)C3=O)cc1OC (stereo not shown) [5j]', 'melting point', '211 to 213 °C'),
  ('COc1ccc(C2CN(C)C3(c4ccccc4-c4nc5ccccc5nc43)C23CC(=O)N(C)C3=O)cc1Br (stereo not shown) [5k]', 'melting point', '209 to 211 °C'),
  ('COc1ccc(C2CN(C)C3(c4ccccc4-c4nc5ccccc5nc43)C23CC(=O)N(C)C3=O)cc1 (stereo not shown) [5d]', 'melting point', '179 to 181 °C'),
  ('CN1C(=O)CC2(C1=O)C(c1ccc(Br)cc1)CN(C)C21c2ccccc2-c2nc3ccccc3nc21 (stereo not shown) [5f]', 'melting point', '200 to 202 °C');
